# Species on record: Rattus norvegicus
# experiment-summary: Open TG-GATES - Regimen: Single
# Type: toxicity, organism-based, Sprague-Dawley
# Design: regimen Single, gender Male, age 6 weeks
# protocol-conditions: in vivo, po, 300 mg/kg, 24 h, tissue Blood, route gavage, dose level Middle
Below, each entry is listed alongside its reported Fbg.

compound: COc1ccc2[nH]c([S+]([O-])Cc3ncc(C)c(OC)c3C)nc2c1 (centres undefined)
Fbg [mg/dL]: 230.2
//
compound: COC1=CC(=O)C[C@@H](C)[C@]12Oc1c(Cl)c(OC)cc(OC)c1C2=O
Fbg [mg/dL]: 204.6
//
compound: CCOC(=O)CCC(=O)O[C@H]1[C@H](O[C@@H]2[C@@H](C)[C@H](O[C@H]3C[C@@](C)(OC)[C@@H](O)[C@H](C)O3)[C@@H](C)C(=O)O[C@H](CC)[C@@](C)(O)[C@H](O)[C@@H](C)C(=O)[C@H](C)C[C@@]2(C)O)O[C@H](C)C[C@@H]1N(C)C [ERYTHROMYCIN ETHYLSUCCINATE]
Fbg [mg/dL]: 319.8
//
compound: NC(N)=Nc1nc(CSCCC(N)=NS(N)(=O)=O)cs1
Fbg [mg/dL]: 225.8

---

# Organism: Rattus norvegicus
# experiment-summary: Open TG-GATES - Regimen: Daily Repeat
# Format: toxicity, organism-based, Sprague-Dawley
# Set-up: regimen Daily Repeat, gender Male, age 6 weeks
# protocol-conditions: in vivo, po, 300 mg/kg, […], tissue Blood, route gavage, dose level Middle, time 7 day
attribute-measured: Ret (%)

compound: COc1ccc2[nH]c([S+]([O-])Cc3ncc(C)c(OC)c3C)nc2c1 (stereo not given)
recorded-result: 4.9
//
compound: CCOC(=O)CCC(=O)O[C@H]1[C@H](O[C@@H]2[C@@H](C)[C@H](O[C@H]3C[C@@](C)(OC)[C@@H](O)[C@H](C)O3)[C@@H](C)C(=O)O[C@H](CC)[C@@](C)(O)[C@H](O)[C@@H](C)C(=O)[C@H](C)C[C@@]2(C)O)O[C@H](C)C[C@@H]1N(C)C [ERYTHROMYCIN ETHYLSUCCINATE]
recorded-result: 6.3
//
compound: CCOc1ccc(NC(=O)CC(C)O)cc1 (stereo not given)
recorded-result: 6.8
//
compound: NC(N)=Nc1nc(CSCCC(N)=NS(N)(=O)=O)cs1
recorded-result: 5.2
//
compound: COC1=CC(=O)C[C@@H](C)[C@]12Oc1c(Cl)c(OC)cc(OC)c1C2=O
recorded-result: 5.7

---

# Species: Rattus norvegicus
# experiment-summary: Open TG-GATES - Regimen: Single
# Format: toxicity, organism-based, Sprague-Dawley
# Set-up: regimen Single, gender Male, age 6 weeks
# protocol-conditions: in vivo, po, 300 mg/kg, 3 h, tissue Blood, route gavage, dose level Middle
Catalogue of Mono values
attribute-measured: Mono

compound: COc1ccc2[nH]c([S+]([O-])Cc3ncc(C)c(OC)c3C)nc2c1 (centres undefined)
attribute-measured: Mono
recorded-result: 3.4%
--
compound: COC1=CC(=O)C[C@@H](C)[C@]12Oc1c(Cl)c(OC)cc(OC)c1C2=O
attribute-measured: Mono
recorded-result: 3.4%
--
compound: NC(N)=Nc1nc(CSCCC(N)=NS(N)(=O)=O)cs1
attribute-measured: Mono
recorded-result: 2.8%
--
compound: CCOC(=O)CCC(=O)O[C@H]1[C@H](O[C@@H]2[C@@H](C)[C@H](O[C@H]3C[C@@](C)(OC)[C@@H](O)[C@H](C)O3)[C@@H](C)C(=O)O[C@H](CC)[C@@](C)(O)[C@H](O)[C@@H](C)C(=O)[C@H](C)C[C@@]2(C)O)O[C@H](C)C[C@@H]1N(C)C [ERYTHROMYCIN ETHYLSUCCINATE]
attribute-measured: Mono
recorded-result: 2.6%
